# Tested on: ATP;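 also: ATP exposure 15 min at 22 °C before imaging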
# measurement-description: switch fluorescence ratio, 500 uM ATP over buffer (Cy3 cluster intensity, sum of 5 cycles each) (fold (ratio)); higher = stronger signal-on switching upon ATP binding; sequences stand for … in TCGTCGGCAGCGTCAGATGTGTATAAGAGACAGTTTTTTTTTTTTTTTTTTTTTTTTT…TC
# experimental-parameters: aptamer strand: ATP DNA aptamer (quencher-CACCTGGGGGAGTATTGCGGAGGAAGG + anchor), 100 nM annealed; ATP concentration: 500 uM
Here, each record is paired with measured switch fluorescence ratio data.
parameter-measured: switch fluorescence ratio

>>> print(df.to_string())
         chain         parameter_measured  test_value
 0  GCTATCTGGA  switch fluorescence ratio       0.998
 1  AGCTGGAGGT  switch fluorescence ratio       0.992
 2  AAGAGTTAGG  switch fluorescence ratio       0.966
 3  TACGTGGCGG  switch fluorescence ratio        1.02
 4  AGGAGTTTCG  switch fluorescence ratio        1.01
 5  CGGACGGGTG  switch fluorescence ratio        1.02
 6  TGGCCGCTTT  switch fluorescence ratio        1.03
 7  CAACGGTTGG  switch fluorescence ratio        1.01
 8  GCGTAGATGG  switch fluorescence ratio        1.01
 9  TCTTAAGGGC  switch fluorescence ratio       0.972
10  TAGGTCTAGG  switch fluorescence ratio           1
11  TAAGTGTTGG  switch fluorescence ratio           1
12  ATTTGTTGCT  switch fluorescence ratio       0.981
13  GTTCGACTCC  switch fluorescence ratio        1.15
14  TGAGTTGATT  switch fluorescence ratio        1.01
15  GCGTTAGCCA  switch fluorescence ratio        1.01
16  TTTTAGACTG  switch fluorescence ratio        1.05
17  CGGAGGACCA  switch fluorescence ratio       0.978
18  TGTGGTAGCG  switch fluorescence ratio        1.01
19  GGGCTTGGCT  switch fluorescence ratio       0.985

Values compiled from the supplement of paper PMC10126150.
